B1: EEHEE_rd3_0130 (parent)
chain: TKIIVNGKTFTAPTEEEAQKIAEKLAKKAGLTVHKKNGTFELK

variants of: B1; assay: folding stability dG (cDNA display proteolysis); higher = more stable; settings: PBS, room temperature
parameter-measured: folding stability dG (kcal/mol)

>  <query-sequence>
TKIIVNGKTFTAPTEEEAQKIAEKLAKKAGLTVHKKNGTFEEK [L42E]

>  <units-of-measure>
kcal/mol

>  <experimental-value>
0.201

$$$$
>  <query-sequence>
TKIIVNGKTFTAPTEEEAQKIAEKLAKKDGLTVHKKNGTFELK [A29D]

>  <units-of-measure>
kcal/mol

>  <experimental-value>
0.326

$$$$
>  <query-sequence>
TKIIVNGKKFTAPTEEEAQKIAEKLAKKAGLTVHKKNGTFELK [T9K]

>  <units-of-measure>
kcal/mol

>  <experimental-value>
0.007

$$$$
>  <query-sequence>
RKIIVNGKTFTAPTEEEAQKIAEKLAKKAGLTVHKKNGTFELK [T1R]

>  <units-of-measure>
kcal/mol

>  <experimental-value>
0.322

$$$$
>  <query-sequence>
TKIIVNGKTFTAPTEEEAQKIAEKLAKKAGLTVHKQNGTFELK [K36Q]

>  <units-of-measure>
kcal/mol

>  <experimental-value>
0.8

$$$$
>  <query-sequence>
TKIIVNGKTFTAPTEEEAQKIAEKLAKKAGLLVHKKNGTFELK [T32L]

>  <units-of-measure>
kcal/mol

>  <experimental-value>
0.291

$$$$
>  <query-sequence>
TKIIVNGKTFTAPTEEEAQKIAEKLAKKAGLTVHKKNGAFELK [T39A]

>  <units-of-measure>
kcal/mol

>  <experimental-value>
1.47

$$$$
>  <query-sequence>
TKIIVNGKTFTAPTEEEAQKIAVKLAKKAGLTVHKKNGTFELK [E23V]

>  <units-of-measure>
kcal/mol

>  <experimental-value>
0.598

$$$$
>  <query-sequence>
TKIIVNGKTFTAPTEEEAQKIAEKLAKKAGLTVTKKNGTFELK [H34T]

>  <units-of-measure>
kcal/mol

>  <experimental-value>
0.992

$$$$
>  <query-sequence>
TKIIVNGKTFTAPTEEESQKIAEKLAKKAGLTVHKKNGTFELK [A18S]

>  <units-of-measure>
kcal/mol

>  <experimental-value>
-0.692

$$$$
>  <query-sequence>
TKIIVNGKTFTAPTEEEAQKIAEKLAKKAGLTVHKKNGTFEVK [L42V]

>  <units-of-measure>
kcal/mol

>  <experimental-value>
0.79

$$$$
>  <query-sequence>
TKIIVNGKTFTAPTEEEAQKIAEKLAKKAGLTVHKKNGTFESK [L42S]

>  <units-of-measure>
kcal/mol

>  <experimental-value>
0.186

$$$$
>  <query-sequence>
TKIIVNGKTFTAPTEEEAQKIAEKLAKKAGLTVHKKNGTFEQK [L42Q]

>  <units-of-measure>
kcal/mol

>  <experimental-value>
0.021

$$$$
>  <query-sequence>
TKIIVNGKTFTAPTEEEAQKIAEKLAKKAGLTVHKKNGTDELK [F40D]

>  <units-of-measure>
kcal/mol

>  <experimental-value>
0.04

$$$$
>  <query-sequence>
TKIIVNGKTFTAPTEEEAQKIAEKLAKKCGLTVHKKNGTFELK [A29C]

>  <units-of-measure>
kcal/mol

>  <experimental-value>
2.56

$$$$
>  <query-sequence>
TKIIVNGKTFTAPTEEEAFKIAEKLAKKAGLTVHKKNGTFELK [Q19F]

>  <units-of-measure>
kcal/mol

>  <experimental-value>
0.959

$$$$
>  <query-sequence>
TKIIVNGKTFTAPTEEEAQKIAEKLAKKAGLTVHKKGGTFELK [N37G]

>  <units-of-measure>
kcal/mol

>  <experimental-value>
0.697

$$$$
>  <query-sequence>
TKIIVNGKTFTAPTEEEAQKIAEKLAKKAGLTVHKKNGTPELK [F40P]

>  <units-of-measure>
kcal/mol

>  <experimental-value>
0.146

$$$$
>  <query-sequence>
TKIIVPGKTFTAPTEEEAQKIAEKLAKKAGLTVHKKNGTFELK [N6P]

>  <units-of-measure>
kcal/mol

>  <experimental-value>
-0.076

$$$$
>  <query-sequence>
TKIIVNGKTFTAPTEEEAQKIAEKLAKKAGLTGHKKNGTFELK [V33G]

>  <units-of-measure>
kcal/mol

>  <experimental-value>
-0.128

$$$$
>  <query-sequence>
TKIIVNGKTFTAPTEEEAQRIAEKLAKKAGLTVHKKNGTFELK [K20R]

>  <units-of-measure>
kcal/mol

>  <experimental-value>
1.01

$$$$
>  <query-sequence>
TKIIVNGKTFTAPTEEEAQKIAEKLAKKAGLTAHKKNGTFELK [V33A]

>  <units-of-measure>
kcal/mol

>  <experimental-value>
0.036

$$$$
>  <query-sequence>
TQIIVNGKTFTAPTEEEAQKIAEKLAKKAGLTVHKKNGTFELK [K2Q]

>  <units-of-measure>
kcal/mol

>  <experimental-value>
0.574

$$$$
>  <query-sequence>
TKINVNGKTFTAPTEEEAQKIAEKLAKKAGLTVHKKNGTFELK [I4N]

>  <units-of-measure>
kcal/mol

>  <experimental-value>
-0.074

$$$$
>  <query-sequence>
TKIIVNGKYFTAPTEEEAQKIAEKLAKKAGLTVHKKNGTFELK [T9Y]

>  <units-of-measure>
kcal/mol

>  <experimental-value>
0.633

$$$$
>  <query-sequence>
TKIIVNGKTFTAPTEEEAQKIAEKLAKKAGPTVHKKNGTFELK [L31P]

>  <units-of-measure>
kcal/mol

>  <experimental-value>
-0.624

$$$$
>  <query-sequence>
TKIIVNGKEFTAPTEEEAQKIAEKLAKKAGLTVHKKNGTFELK [T9E]

>  <units-of-measure>
kcal/mol

>  <experimental-value>
0.17

$$$$
>  <query-sequence>
TKIIVNGKTFTACTEEEAQKIAEKLAKKAGLTVHKKNGTFELK [P13C]

>  <units-of-measure>
kcal/mol

>  <experimental-value>
0.981

$$$$
>  <query-sequence>
YKIIVNGKTFTAPTEEEAQKIAEKLAKKAGLTVHKKNGTFELK [T1Y]

>  <units-of-measure>
kcal/mol

>  <experimental-value>
2.19

$$$$
>  <query-sequence>
TKIIVNGKTFTAPTEEEAQKIAEKLAKKAGKTVHKKNGTFELK [L31K]

>  <units-of-measure>
kcal/mol

>  <experimental-value>
-0.636

$$$$
>  <query-sequence>
TKIIVNGKTFTAPTEEEAQKIAEKLAKKANLTVHKKNGTFELK [G30N]

>  <units-of-measure>
kcal/mol

>  <experimental-value>
0.349

$$$$
>  <query-sequence>
TKIIVDGKTFTAPTEEEAQKIAEKLAKKAGLTVHKKNGTFELK [N6D]

>  <units-of-measure>
kcal/mol

>  <experimental-value>
0.319

$$$$
>  <query-sequence>
TKIIVNGKTFTAPTEEEAQKIAEKLAKKAGLTVHRKNGTFELK [K35R]

>  <units-of-measure>
kcal/mol

>  <experimental-value>
0.798

$$$$
>  <query-sequence>
TKIIVNGKTFTAPTEEEAQKIAEKLAKKAGLTVHYKNGTFELK [K35Y]

>  <units-of-measure>
kcal/mol

>  <experimental-value>
1.55

$$$$
>  <query-sequence>
TKIIVNGKTFTAPTEEEAQKIAENLAKKAGLTVHKKNGTFELK [K24N]

>  <units-of-measure>
kcal/mol

>  <experimental-value>
0.76

$$$$
>  <query-sequence>
TKIIVNGKTFTAPTEEEAQKIAEKLAKKAALTVHKKNGTFELK [G30A]

>  <units-of-measure>
kcal/mol

>  <experimental-value>
-0.039

$$$$
>  <query-sequence>
TKITVNGKTFTAPTEEEAQKIAEKLAKKAGLTVHKKNGTFELK [I4T]

>  <units-of-measure>
kcal/mol

>  <experimental-value>
0.449

$$$$
>  <query-sequence>
TKIIVMGKTFTAPTEEEAQKIAEKLAKKAGLTVHKKNGTFELK [N6M]

>  <units-of-measure>
kcal/mol

>  <experimental-value>
0.863

$$$$
>  <query-sequence>
TKIIVNGKTFRAPTEEEAQKIAEKLAKKAGLTVHKKNGTFELK [T11R]

>  <units-of-measure>
kcal/mol

>  <experimental-value>
0.493

$$$$
>  <query-sequence>
TKIIVNGKTFTAPTEEEAQKIAEKLAKKALLTVHKKNGTFELK [G30L]

>  <units-of-measure>
kcal/mol

>  <experimental-value>
-0.179

$$$$
>  <query-sequence>
TKIIVNGKTFTAPTEEEAQKIAEKLAKKAGLTVHKKNPTFELK [G38P]

>  <units-of-measure>
kcal/mol

>  <experimental-value>
0.071

$$$$
>  <query-sequence>
TKIIVNGKTFTAPTEEEAQKIAEKLAKKAGLTVHKKNGTTELK [F40T]

>  <units-of-measure>
kcal/mol

>  <experimental-value>
-0.035

$$$$
>  <query-sequence>
TKIIVNGKTFTAPTEEEAQKIAEKLAKPAGLTVHKKNGTFELK [K28P]

>  <units-of-measure>
kcal/mol

>  <experimental-value>
0.128

$$$$
>  <query-sequence>
TKIIVNGKTFTALTEEEAQKIAEKLAKKAGLTVHKKNGTFELK [P13L]

>  <units-of-measure>
kcal/mol

>  <experimental-value>
0.492

$$$$
>  <query-sequence>
TKIIVNGKTFTAPTEEEAKKIAEKLAKKAGLTVHKKNGTFELK [Q19K]

>  <units-of-measure>
kcal/mol

>  <experimental-value>
0.789

$$$$
>  <query-sequence>
TKIIVNGKTFTAPTEEEAQKIAEKLAKKAGLTVHKKNGKFELK [T39K]

>  <units-of-measure>
kcal/mol

>  <experimental-value>
0.554

$$$$
